Tested on: A549
ASSAY DETAILS: Antiproliferative activity against human A549 cells assessed as inhibition of cell growth incubated for 48 hrs by MTT assay
Type: functional, cell-based
SETTINGS: A549, 48 h
REPORTED ENDPOINT: IC50

Fc1ccc(/C=N/Nc2nc(-c3ccc(Br)cc3)cs2)cc1F    > 100 µM
COc1cc(/C=N/Nc2nc(-c3ccc(F)c(F)c3)cs2)c(Br)c(Br)c1OC    8.38 µM
COc1cc(/C=N/Nc2nc(-c3cccc(Br)c3)cs2)c(Br)c(Br)c1OC    37 µM
COc1cc(/C=N/Nc2nc(-c3ccc(Br)cc3)cs2)c(Br)c(Br)c1OC    46.1 µM

Q: Provide IC50, tested on A549, for COc1ccccc1-c1csc(N/N=C/c2cc(Br)c(OC)c(OC)c2)n1 .
Result: 94.9 µM

----------
Tested on: A549
ASSAY DETAILS: Antiproliferative activity against human A549 cells assessed as inhibition of cell growth incubated for 48 hrs by MTT assay
Type: functional, cell-based
SETTINGS: A549, 48 h
REPORTED ENDPOINT: IC50 (µM)
One number for each entry, in µM.

Observe how each entry below is paired with its result.
COc1cc(/C=N/Nc2nc(-c3ccccc3)cs2)c(Br)c(Br)c1OC    15.3
COc1cc(/C=N/Nc2nc(-c3ccc(C(F)(F)F)cc3)cs2)c(Br)c(Br)c1OC    17.6
COc1cc(/C=N/Nc2nc(-c3cc(C(F)(F)F)cc(C(F)(F)F)c3)cs2)cc(Br)c1OC    94.2
COc1ccccc1-c1csc(N/N=C/c2ccc(F)c(F)c2)n1    61.3

With those in mind, consider the next compound.
Q: Find the measured IC50 of COc1ccccc1-c1csc(N/N=C/c2cc(OC)c(OC)c(Br)c2Br)n1 and report it.
Result: 85.1

----------
ASSAY DETAILS: Volume of distribution in steady state in female Sprague-Dawley rat at 2 mg/kg, iv measured up to 24 hrs by LC/MS-MS analysis
Assay type: ADME, organism-based
SETTINGS: in vivo, read-out: Vdss
REPORTED ENDPOINT: Vd (L/kg)
One number for each entry, in L/kg.

Q: Find the measured Vd of Fc1ccc(/C=N/Nc2nc(-c3ccc(C(F)(F)F)cc3)cs2)cc1F and report it.
Result: 0.19

----------
ASSAY DETAILS: Oral bioavailability in female Sprague-Dawley rat at 10 mg/kg measured up to 24 hrs by LC/MS-MS analysis
Assay type: ADME, organism-based
SETTINGS: in vivo
REPORTED ENDPOINT: bioavailability (%)
Answers are plain numbers, in %.

Q: Find the measured bioavailability of Fc1ccc(/C=N/Nc2nc(-c3ccc(C(F)(F)F)cc3)cs2)cc1F and report it.
Result: 31

----------
System: HepG2
ASSAY DETAILS: Antiproliferative activity against human HepG2 cells assessed as inhibition of cell growth incubated for 48 hrs by MTT assay
Format: functional, cell-based
SETTINGS: HepG2, 48 h
# Y = IC50 below 20 µM (exclusive); N = IC50 at/above 20 µM

Observe how each entry below is paired with its result.
COc1cc(/C=N/Nc2nc(-c3ccc(F)c(F)c3)cs2)cc(Br)c1OC    N
COc1cc(/C=N/Nc2nc(-c3ccc(F)c(F)c3)cs2)c(Br)c(Br)c1OC    N
COc1cc(/C=N/Nc2nc(-c3ccccc3)cs2)cc(Br)c1OC    N
COc1cc(/C=N/Nc2nc(-c3cc(C(F)(F)F)cc(C(F)(F)F)c3)cs2)cc(Br)c1OC    N

Q: Please let me know if COc1ccccc1-c1csc(N/N=C/c2cc(Br)c(OC)c(OC)c2)n1 shows IC50 below 20 µM.
Result: N

Q: Please let me know if O=C(O)/C(Cc1ccccc1[N+](=O)[O-])=N\Nc1nc(-c2ccc(Cl)c(Cl)c2)cs1 shows IC50 below 20 µM.
Result: N

Q: Please let me know if Fc1ccc(/C=N/Nc2nc(-c3ccc(Br)cc3)cs2)cc1F shows IC50 below 20 µM.
Result: N

Q: Please let me know if COc1ccccc1-c1csc(N/N=C/c2cc(OC)c(OC)c(Br)c2Br)n1 shows IC50 below 20 µM.
Result: N

Q: Please let me know if COc1cc(/C=N/Nc2nc(-c3cccc(Br)c3)cs2)c(Br)c(Br)c1OC shows IC50 below 20 µM.
Result: N

Q: Please let me know if Fc1ccc(/C=N/Nc2nc(-c3cccc(Br)c3)cs2)cc1F shows IC50 below 20 µM.
Result: Y

Q: Please let me know if COc1cc(/C=N/Nc2nc(-c3ccc(C(F)(F)F)cc3)cs2)cc(Br)c1OC shows IC50 below 20 µM.
Result: N

Q: Please let me know if Fc1ccc(/C=N/Nc2nc(-c3cc(C(F)(F)F)cc(C(F)(F)F)c3)cs2)cc1F shows IC50 below 20 µM.
Result: Y
